# measurement.protocol: Turbidity, derived count rate of scattered light
# Type: physicochemical
# run.parameters: Log10 of derived count rate of scattered light (turbidity)
Entries whose Log10 Count Rate is below 3 take fulfilled; entries at or above 3 take not fulfilled.

Use the examples below as a reference point.
* TKTLTKTL | fulfilled
* KIKIQINMWQRGD | not fulfilled
* RGDSGGGGGGKIKIQIC | not fulfilled

Request: Is Log10 Count Rate strictly under 3 for the entry `KIKIQIW` ?
Result: fulfilled

Request: Is Log10 Count Rate strictly under 3 for the entry `FDPFDPFDP` ?
Result: fulfilled

Request: Is Log10 Count Rate strictly under 3 for the entry `HLHLPLL` ?
Result: fulfilled

The origin of these recorded values is paper PMC10447463.
